Target: Cytochrome P450 3A4 (Homo sapiens) (UniProt P08684)
Sequence (P08684 whole entry, looked up): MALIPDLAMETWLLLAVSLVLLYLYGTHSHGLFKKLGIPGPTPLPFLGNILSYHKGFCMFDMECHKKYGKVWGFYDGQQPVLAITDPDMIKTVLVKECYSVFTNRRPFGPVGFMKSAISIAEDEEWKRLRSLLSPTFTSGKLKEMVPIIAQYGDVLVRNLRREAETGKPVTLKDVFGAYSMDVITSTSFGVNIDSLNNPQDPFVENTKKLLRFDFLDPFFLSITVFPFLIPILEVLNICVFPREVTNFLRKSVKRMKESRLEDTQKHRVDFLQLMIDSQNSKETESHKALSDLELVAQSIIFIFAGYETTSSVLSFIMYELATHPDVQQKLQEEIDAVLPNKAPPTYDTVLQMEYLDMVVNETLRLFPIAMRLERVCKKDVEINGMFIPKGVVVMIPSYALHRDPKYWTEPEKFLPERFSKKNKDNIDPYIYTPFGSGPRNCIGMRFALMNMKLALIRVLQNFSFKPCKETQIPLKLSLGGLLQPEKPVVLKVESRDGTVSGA
Assay: Cytochrome P450 Family 3 Subfamily A Member 4 (CYP3A4) small molecule antagonists: luciferase reporter qHTS assay (AID 1671201); further: nearly all actives have a fitted effect of over 50% in size
Conditions: P450-Glo CYP3A4 enzyme, luciferin luminescence, 1 h; series mostly up to 115 µM
Excerpt: National Center for Advancing Translational Sciences [NCATS] U.S. Environmental Protection Agency [EPA] National Institutes of Environmental Health Sciences [NIEHS] National Toxicology Program [NTP] U.S. Food and Drug Administration [FDA] Cytochrome P450 (CYP) enzymes are membrane-bound hemeproteins that play a key role in metabolism of drugs and xenobiotics. […] The luciferin products formed are detected with a luciferin detection reagent, and the amount of light produced is proportional to CYP activity. […]
Records with an inconclusive call do not appear. The source made the active and inactive calls. The call rests on the fitted dose curve; in most records, active means well fitted inhibition curve with a large enough effect in the repeat runs; inconclusive means weak or mixed curves; inactive means no such curve, though single readings can be large or run the other way.
Answer with one of the outcomes active, inactive

Answered examples (4):
>  <compound>
C=CC(=O)OCC

>  <target of assay>
Cytochrome P450 3A4 (Homo sapiens) (UniProt P08684)

>  <qualitative label>
inactive

$$$$
>  <compound>
CC(C)(c1ccccc1)c1cc(-n2nc3ccccc3n2)c(O)c(C(C)(C)c2ccccc2)c1

>  <target of assay>
Cytochrome P450 3A4 (Homo sapiens) (UniProt P08684)

>  <qualitative label>
inactive

$$$$
>  <compound>
COc1ccc(C(O)(c2cncnc2)C2CC2)cc1 (stereo not drawn)

>  <target of assay>
Cytochrome P450 3A4 (Homo sapiens) (UniProt P08684)

>  <qualitative label>
active

$$$$
>  <compound>
CCCC[N+]1(C)[C@@H]2CC(OC(=O)[C@H](CO)c3ccccc3)C[C@H]1[C@@H]1O[C@@H]12 (stereo partly drawn)

>  <target of assay>
Cytochrome P450 3A4 (Homo sapiens) (UniProt P08684)

>  <qualitative label>
inactive

$$$$

query: Give the logged outcome of this assay for the following compound: `NCCc1cc(O)c(O)cc1O`
result: inactive

query: Next up: `O=C(O)c1ccc(=O)[nH]c1`
result: inactive

query: Record: `CCNC(=O)NC(=O)/C(C#N)=N/OC`
result: inactive

query: Please do the same for `CCOP(=O)(O)C(N)=O` as well.
result: inactive

Hey, just so you know, these numbers are from PubChem BioAssay (Tox21).
